Values from patent US10807968B2

assay comment: log P determination by HPLC on reversed-phase (C18) columns, OECD Guideline 117
Type: physicochemical
protocol conditions: pH 2.7
result type: logp-acidic

# molecule, result type, numeric value
data = [
    ("CN(C(=O)c1cnc(-c2cc(C(F)(F)F)cc(C(F)(F)F)c2)n1C)c1cccnc1 [Example 53]", "logp-acidic", 2.43),
    ("CN(C(=O)c1cnc(-c2cnn(-c3ccccc3)c2)n1C)c1cccnc1 [Example 26]", "logp-acidic", 1.19),
    ("CN(C(=O)c1cnc(-c2cccc(C(F)(F)F)c2)n1C)c1cccnc1 [Example 52]", "logp-acidic", 1.64),
    ("CN(C(=O)c1cnc(-c2ncccc2Cl)n1C)c1cccnc1 [Example 106]", "logp-acidic", 0.75),
    ("COc1cc(-c2ncc(C(=O)N(C)c3cccnc3)n2C)cnc1OC [Example 93]", "logp-acidic", 0.66),
    ("CN(C(=O)c1cnc(-c2cc(F)cc(C#N)c2)n1C)c1cccnc1 [Example 60]", "logp-acidic", 1.21),
    ("CN(C(=O)c1cnc(-c2cccc3ccccc23)n1C)c1cccnc1 [Example 27]", "logp-acidic", 1.35),
    ("CC(C)n1cc(-c2ncc(C(=O)N(C)c3cccnc3)n2C)nn1 [Example 73]", "logp-acidic", 0.88),
    ("CN(C(=O)c1cnc(-c2cccc(SCC3CC3)c2)n1C)c1cccnc1 [Example 18]", "logp-acidic", 1.87),
    ("CC(C)Oc1ccc(-c2ncc(C(=O)N(C)c3cccnc3)n2C)cn1 [Example 102]", "logp-acidic", 1.21),
    ("COc1ncc(F)cc1-c1ncc(C(=O)N(C)c2cccnc2)n1C [Example 101]", "logp-acidic", 0.91),
]
